# System: KM12 colon
# EXPERIMENT: NCI-60 one-dose screen, 48 h
# MEASUREMENT CONDITIONS: 10 µM unless noted
# Method: Growth inhibition of the KM12 human tumor cell line is measured as a screen for anti-cancer activity. Cells are grown in 96 well plates and exposed to the test compound for 48 hours. Compounds are tested at a single concentration, which is 10^-5 M for most compounds. The reported endpoint is percent growth (GI% or GIPRCNT), where numbers from 0 - 100% represent growth inhibition, and numbers from -100% - 0 represent cell death. For example, a value of 40 represents 60% growth inhibition. […]
About 83,000 compounds went through this panel and 20% of them were active in at least one assay; those are over-represented in the sample as a whole. Activity calls are given as the source filed them. Rule for the calls: active = growth percent below 10; inactive = the rest.
Outcomes: 1 = active, 0 = inactive

[
  {
    "MOLECULE": "Cc1ccc(C2C3CC4CCCCC4N3[C@@]3(C(=O)Nc4cc(Cl)ccc43)C2C(=O)c2nc3ccccc3[nH]2)cc1 (some centres not stated)",
    "CLASS NAME": 0
  },
  {
    "MOLECULE": "Fc1ccc(-n2cc(COc3ncnc4sc5c(c34)CCCC5)nn2)cc1Cl",
    "CLASS NAME": 0
  },
  {
    "MOLECULE": "O=C1c2cccnc2C(=O)c2nc3cc(N4CCN(C5CC5)CC4)ccc3nc21",
    "CLASS NAME": 1
  },
  {
    "MOLECULE": "O=C(CN1CCOCC1)Nc1ccc2ncnc(Nc3ccc(Oc4cccc(F)c4)c(Cl)c3)c2c1",
    "CLASS NAME": 0
  },
  {
    "MOLECULE": "COc1ccc(-c2cnnc3c(-c4cccc(C(F)(F)F)c4)cnn23)cc1",
    "CLASS NAME": 0
  },
  {
    "MOLECULE": "CCN(CC)CCCC(Nc1c2ccc(Cl)cc2nc2ccc(OC)cc12)c1ccc(Cl)cc1 (configuration not stated)",
    "CLASS NAME": 1
  },
  {
    "MOLECULE": "Cc1ccc(C2CC(c3cccc(Nc4ccncc4)c3)=NN2c2ccccc2)cc1 (configuration not stated)",
    "CLASS NAME": 1
  },
  {
    "MOLECULE": "CCOc1ccc(/C=N/Nc2cc(C)nc3ccc(Cl)cc23)cc1",
    "CLASS NAME": 0
  },
  {
    "MOLECULE": "C/C(=C(/c1ccccc1)c1ccc(OCC(O)CNCCN2CCOCC2)cc1)c1ccccc1 (configuration not stated)",
    "CLASS NAME": 0
  },
  {
    "MOLECULE": "c1ccc(-c2nn(-c3ccccc3)[n+](-c3cccc4ccccc34)n2)cc1",
    "CLASS NAME": 0
  },
  {
    "MOLECULE": "COc1ccc(/C=C/C(=O)c2ccc(OC)c(OC)c2)cc1O",
    "CLASS NAME": 0
  },
  {
    "MOLECULE": "CCCNC(=O)Oc1ccc(/C(=C(\\C)c2ccccc2)c2ccc(OCCN3CCCCC3)cc2)cc1",
    "CLASS NAME": 0
  },
  {
    "MOLECULE": "Cc1ccc(-c2csc(/N=C3\\C(=O)Nc4ccccc43)n2)cc1",
    "CLASS NAME": 0
  },
  {
    "MOLECULE": "Cc1cccc(C)c1-c1cc(Cc2ccc(Cl)cc2)c(=O)[nH]n1",
    "CLASS NAME": 0
  },
  {
    "MOLECULE": "NC(=S)N/N=C(/c1ccccc1)c1ccccc1N",
    "CLASS NAME": 0
  },
  {
    "MOLECULE": "O=C(CSc1nc2sc3c(c2c(=O)n1Cc1ccccc1)CCCC3)N1CCN(c2ccccc2)CC1",
    "CLASS NAME": 0
  },
  {
    "MOLECULE": "N/C(=N\\N=C\\c1cc2ccccc2s1)N/N=C/c1cc2ccccc2s1",
    "CLASS NAME": 0
  }
]

###

# Test system: UACC-257 melanoma
# EXPERIMENT: NCI-60 one-dose screen, 48 h (100 = growth as untreated, 0 = no growth, -100 = all killed)
# MEASUREMENT CONDITIONS: 10 µM unless noted
# Description: Cells are grown in 96 well plates and exposed to the test compound for 48 hours. Compounds are tested at a single concentration, which is 10^-5 M for most compounds. The reported endpoint is percent growth (GI% or GIPRCNT), where numbers from 0 - 100% represent growth inhibition, and numbers from -100% - 0 represent cell death. For example, a value of 40 represents 60% growth inhibition. A value of 0 means no net growth occurred over the course of the experiment. […]
This is part of a sample that, as a whole, favours compounds with a hit. Of some 83,000 tested, about 20% had one in any assay.

[
  {
    "MOLECULE": "OC(c1ccccc1)c1ccccn1 (stereo unspecified)",
    "growth, %": 90.5
  },
  {
    "MOLECULE": "COc1ccc(Nc2nc(N)nc3c2CCc2occc2-3)cc1",
    "growth, %": 108
  },
  {
    "MOLECULE": "CCN(CC)CCCC(C)Nc1c2c(nc3ccc(OC)cc13)CCCC2 (stereo unspecified)",
    "growth, %": 112
  },
  {
    "MOLECULE": "O=c1[nH]c(=O)[nH]c(=S)[nH]1",
    "growth, %": 101
  },
  {
    "MOLECULE": "O=C(NCCN1CCOCC1)OCc1nc2nc(Cl)nc(N3CCOCC3)c2[nH]1",
    "growth, %": 69.2
  },
  {
    "MOLECULE": "C#CC(=O)Nc1cccc(Nc2nc3c(c(NCc4ccccc4)n2)CCCC3)c1",
    "growth, %": -90.6
  },
  {
    "MOLECULE": "Nc1cc(N)c2cccnc2c1O",
    "growth, %": 76.1
  },
  {
    "MOLECULE": "c1ccc(-c2nn(-c3ccccc3)[n+](-c3ccccc3-c3ccccc3)n2)cc1",
    "growth, %": 9.82
  },
  {
    "MOLECULE": "O=C1c2cccnc2C(=O)c2nc3cc(N4CCN(C5CC5)CC4)ccc3nc21",
    "growth, %": -84.5
  },
  {
    "MOLECULE": "CC(=O)OC1CCC2(C)C(CCC3C4CC=C(C(C)=O)C4(C)OC(=O)CC32)C1 (stereo unspecified)",
    "growth, %": -74.9
  },
  {
    "MOLECULE": "CCNC(=S)NNC(=O)c1cc2ccc1CCc1ccc(cc1)CC2",
    "growth, %": 109
  }
]

###

# Tested on: UO-31 renal
# EXPERIMENT: NCI-60 one-dose screen, 48 h (100 = growth as untreated, 0 = no growth, -100 = all killed)
# MEASUREMENT CONDITIONS: 10 µM unless noted
This is part of a sample that, as a whole, favours compounds with a hit. Of some 83,000 tested, about 20% had one in any assay.

[
  {
    "COMPOUND": "O=C1OC(=O)C2C1CC=CC2c1ccccc1 (stereo not drawn)",
    "growth [%]": 88.9
  },
  {
    "COMPOUND": "COc1ccc(/C=C/c2n[nH]c3ccc(N4CCOC4=O)cc23)cc1",
    "growth [%]": -45.7
  },
  {
    "COMPOUND": "COc1ccccc1/C=N/NC1=NC2C(N1)N(C)C(=O)N2C (stereo not drawn)",
    "growth [%]": 86.2
  },
  {
    "COMPOUND": "CC(=O)N1N=C(c2cccc(Nc3ccncc3)c2)CC1c1ccccc1 (stereo not drawn)",
    "growth [%]": 80.6
  },
  {
    "COMPOUND": "O=c1[nH]nc(-c2ccc(Br)cc2)cc1Cc1ccc(O)cc1",
    "growth [%]": 77.3
  },
  {
    "COMPOUND": "COc1ccccc1-c1c(-c2ccc(Cl)cc2)c2cc3c(cc2[nH]c1=O)OCCO3",
    "growth [%]": 61.9
  },
  {
    "COMPOUND": "CC(C)CCSc1nc(NNC(N)=O)c(C#N)c(-c2ccccc2)n1",
    "growth [%]": 85.1
  },
  {
    "COMPOUND": "CCN1C(=O)N(CC)C2C1NN=c1s/c(=C3\\C(=O)Nc4ccccc43)c(=O)n12 (stereo not drawn)",
    "growth [%]": 42.9
  },
  {
    "COMPOUND": "C=C(C)[C@@H]1CC[C@]2(C(=O)O)CC[C@]3(C)[C@H](CC[C@@H]4[C@@]5(C)C[C@@H](CC#Cc6ccc(Br)cc6)C(=O)C(C)(C)[C@@H]5CC[C@]43C)[C@@H]12",
    "growth [%]": 68
  },
  {
    "COMPOUND": "COc1ccc(/C=N/C2=C(C#N)C(c3ccccc3[N+](=O)[O-])c3ccc4ccccc4c3O2)cc1 (stereo not drawn)",
    "growth [%]": 64.8
  },
  {
    "COMPOUND": "COc1ccc(-c2nc3sccn3c2/C=C/C(=O)c2cc(OC)c(OC)c(OC)c2)cc1",
    "growth [%]": 17.6
  },
  {
    "COMPOUND": "O=C1NC(=O)C(=Cc2cn(Cc3ccccn3)c3ccccc23)C(=O)N1",
    "growth [%]": 75.5
  },
  {
    "COMPOUND": "Cc1c2c(cc[n+]1Cc1ccc(F)cc1)c1ccc(OCc3cccc(F)c3)cc1n2Cc1cccc(F)c1",
    "growth [%]": 53.9
  },
  {
    "COMPOUND": "C=C1C(=O)O[C@H]2[C@H]1CC/C(COC(=O)NCCc1c[nH]c3ccc(Cl)cc13)=C\\CC[C@@]1(C)O[C@@H]21",
    "growth [%]": -99.7
  },
  {
    "COMPOUND": "Cc1cc(C)c(C=O)c(C)c1",
    "growth [%]": 86.3
  },
  {
    "COMPOUND": "CC(=O)[C@@H]1CC[C@]2(C(N)=O)CC[C@]3(C)[C@H](CC[C@@H]4[C@@]5(C)CCC(=O)C(C)(C)[C@@H]5CC[C@]43C)[C@@H]12",
    "growth [%]": 98.7
  },
  {
    "COMPOUND": "COc1cccc(/C=C2\\COc3ccc(-c4ccccc4)cc3C2=O)c1",
    "growth [%]": -38.1
  },
  {
    "COMPOUND": "COc1ccc(-c2nc(N/N=C/c3cccc(O)c3)nc(N3CCOCC3)c2C#N)cc1",
    "growth [%]": 34.4
  },
  {
    "COMPOUND": "CC(=O)c1c[nH]c2ccc(-c3ccnc(Nc4ccc(NC(=O)C5CCCC5)c(CN5CCOCC5)c4)n3)cc12",
    "growth [%]": 2.12
  },
  {
    "COMPOUND": "Nc1cc(N)c2cccnc2c1O",
    "growth [%]": 56.5
  },
  {
    "COMPOUND": "Cn1c(COC(=O)NCCN2CCOCC2)nc2c(N3CCOCC3)nc(-c3ccccc3)nc21",
    "growth [%]": -100
  },
  {
    "COMPOUND": "CCCNC(=O)Oc1ccc(/C(=C(\\C)c2ccccc2)c2ccc(OCCN3CCCCC3)cc2)cc1",
    "growth [%]": 46.5
  },
  {
    "COMPOUND": "COc1cc(COC(=O)CCCCC[P+](c2ccccc2)(c2ccccc2)c2ccccc2)c(OC)c2c1OCO2",
    "growth [%]": 91.4
  },
  {
    "COMPOUND": "C#CC(=O)Nc1cccc(Nc2nc3c(c(NCc4ccccc4)n2)CCCC3)c1",
    "growth [%]": -91.6
  },
  {
    "COMPOUND": "Cc1nc2sc(C(=O)Nc3ccccc3)c(N)c2cc1C(=O)c1ccc(C(F)(F)F)cc1",
    "growth [%]": 90.7
  },
  {
    "COMPOUND": "CC(=O)[C@@H]1CC[C@]2(C(=O)n3ccnc3)CC[C@]3(C)[C@H](CC[C@@H]4[C@@]5(C)Cc6c([nH]c7ccccc67)C(C)(C)[C@@H]5CC[C@]43C)[C@@H]12",
    "growth [%]": 63.6
  },
  {
    "COMPOUND": "COC(=O)C1NC(=S)N(c2ccc(Cl)cc2)C1/C=C/c1ccccc1 (stereo not drawn)",
    "growth [%]": 86.8
  },
  {
    "COMPOUND": "COc1ccccc1N1CCN(C(=O)c2ccc3nc(NC(=O)c4ccc(NCCc5ccccc5)c([N+](=O)[O-])c4)sc3c2)CC1",
    "growth [%]": 60.1
  },
  {
    "COMPOUND": "C=C1C(=O)O[C@H]2[C@H]1CC/C(COC(=O)/C=C/c1c[nH]c3ccccc13)=C\\CC[C@@]1(C)O[C@@H]21",
    "growth [%]": -100
  },
  {
    "COMPOUND": "COc1ccccc1C(C[N+](=O)[O-])c1c(-c2ccccc2)[nH]c2cc(C)ccc12 (stereo not drawn)",
    "growth [%]": 57.2
  },
  {
    "COMPOUND": "Cn1c2c(Cl)c(Cl)ccc2c2cc(N)[nH]c(=O)c21",
    "growth [%]": 54.4
  },
  {
    "COMPOUND": "O=c1nc2n(nc1/C=C/c1ccco1)CC(c1ccc(Cl)cc1)=NN2",
    "growth [%]": 64
  },
  {
    "COMPOUND": "COc1cccc2cc(-c3cc4ccccc4[nH]3)/c(=N/C(=S)Nc3ccc(C)cc3)oc12",
    "growth [%]": 85.3
  },
  {
    "COMPOUND": "COc1cccc(CCC(=O)c2cc3c(N)c(C(=O)Nc4cccc(Cl)c4C)sc3nc2C)c1",
    "growth [%]": 30.7
  },
  {
    "COMPOUND": "O=C1Nc2c(ccc(Cl)c2Cl)/C1=C/c1ccc([N+](=O)[O-])cc1",
    "growth [%]": 79.7
  },
  {
    "COMPOUND": "CCCCCN1C=C/C(=C\\C(=O)N(C)c2cccc3ccccc23)c2ccccc21",
    "growth [%]": 82.5
  },
  {
    "COMPOUND": "CCC(=O)c1ccc(O)c(OC)c1",
    "growth [%]": 101
  },
  {
    "COMPOUND": "O=C(O)C(/C=C/c1ccco1)=N\\Nc1nc(-c2ccc(Cl)cc2)cs1",
    "growth [%]": 38.8
  }
]

Source of measurements: PubChem BioAssay (NCI)
